Where these numbers come from: paper PMC6241247

test: Plasma pharmacokinetics after oral administration of YCHT in control (normal) rats, UHPLC-MS/MS; format: in vivo, Sprague-Dawley rats; conditions: Sprague-Dawley, rat; control rats, oral YCHT 60 g/kg, plasma, n = 6; read-out: MRT0–t
parameter: MRT last (h)
Please give a number only; it is taken to be in h.

[ask] # MRT last lookup, item COc1cc2ccc(=O)oc2cc1OC
[reply] 3.19

---

Consider the following molecules; for each one, report its AUC0–∞.
test: Plasma pharmacokinetics after oral administration of YCHT in model (CCl4-induced acute liver injury) rats, UHPLC-MS/MS; conditions: model (CCl4 liver injured) rats, oral YCHT 60 g/kg, plasma, n = 6

[ask] Which AUC0–∞ is reported for this molecule? Cc1cc(O)c2c(c1)C(=O)c1cc(O)cc(O)c1C2=O
[reply] 13.49 ± 2.43 ug/L∗h

[ask] Which AUC0–∞ value is on record for COc1cc2ccc(=O)oc2cc1O ?
[reply] 7.83 ± 2.00 ug/L∗h

[ask] Look at this molecule and give its reported AUC0–∞. COc1cc(O)c2c(c1)C(=O)c1cc(C)cc(O)c1C2=O
[reply] 48.47 ± 12.74∗∗ ug/L∗h

[ask] Return reported AUC0–∞; argument: O=C(O)c1cc(O)c2c(c1)C(=O)c1cccc(O)c1C2=O
[reply] 5518.78 ± 1256.46∗∗ ug/L∗h

[ask] What value of AUC0–∞ has been recorded for this entry: O=C1c2cccc(O)c2C(=O)c2c(O)cc(CO)cc21
[reply] 158.71 ± 19.26∗∗ ug/L∗h

[ask] Which AUC0–∞ is listed for COc1cc2ccc(=O)oc2cc1OC ?
[reply] 5197.06 ± 513.33∗∗ ug/L∗h

[ask] Dear colleague, I am looking for the recorded AUC0–∞ of the following molecule: COC(=O)C1=CO[C@@H](O[C@@H]2O[C@H](CO)[C@@H](O)[C@H](O)[C@H]2O)[C@@H]2C(CO)=CC[C@H]12 [Geniposide]
[reply] 5223.83 ± 746.92∗∗ ug/L∗h

---

Provide the reported MRT last of each item.
experiment: Plasma pharmacokinetics after oral administration of YCHT in control (normal) rats, UHPLC-MS/MS; type: in vivo, Sprague-Dawley rats; settings: Sprague-Dawley, rat, in vivo, po, 60 g/kg
Note: unit h is implicit; provide only the numeric part.

[ask] Fill in: MRT last of O=C(O)c1cc(O)c2c(c1)C(=O)c1cccc(O)c1C2=O [Rhein] is ___
[reply] 4.79

[ask] Item Cc1cc(O)c2c(c1)C(=O)c1cccc(O)c1C2=O [Chrysophanol] has what recorded MRT last?
[reply] 2.93

[ask] Requested read-out: MRT last. Entry: COc1cc2ccc(=O)oc2cc1O [Scopoletin]
[reply] 4.4

[ask] Would you kindly share the measured MRT last for COc1cc(O)c2c(c1)C(=O)c1cc(C)cc(O)c1C2=O [Physcion] ?
[reply] 2.88

---

experiment: Plasma pharmacokinetics after oral administration of YCHT in control (normal) rats, UHPLC-MS/MS; format: in vivo, Sprague-Dawley rats; settings: Sprague-Dawley, rat; control rats, oral YCHT 60 g/kg, plasma, n = 6; read-out: Tmax
parameter: Tmax
# do not omit the unit; it follows the number

[ask] # input compound: COc1cc2ccc(=O)oc2cc1OC ; wanted: its Tmax
[reply] 32.4 min
